tested on: MCF7 cells; test: Quantitative nanoLC-MS/MS (TMT) of ADMA-containing peptides, CARM1 KO vs parental; format: cell-based, human; design: scale not given here; details: ADMA-containing peptide, CARM1 knockout (KO) vs wild type (WT) MCF7 cells; 6-plex TMT experiment #1; three biological replicates each; sheet "MCF7"
observedProperty: Fold change KO/WT

substance | endpointResult
FEGGHGPSGAAIrFDGPHGQPGGGIrFEGPLLQQGVGMrFEGPHGQSVAGLR | -1.343
APAGGSLGrALMR | -0.2145
TSGELGPFNNGASYPLQAGQPrLTK | -4.512
QGSIGLYTQNQPLPAGGPrVDPYrPVRLPMQK | -2.102
GLPTTTQrVGVPTAVQNLAPrAAVAAAAPrAVAPYK | -2.96
APDEPQQAQVPHVWGWEVAGAPALrLQK | -2.912
VrPVLNLPGPGPALPrALER | -2.391
DLPLHPrGFLPGHAPFrPLGSLGPrEYFIPGTrLPPPTHGPQEYPPPPAVR | -1.638
NSCPGPLDSSAFLSSDFLLPEDPKPrLPPPPVPPPLLHYPPPAK | -3.136
VrPVLNLPGPGPALPR | -2.268
AVCSTPLSSSLLGPPGTSALPrLSR | -3.255
LLALSGPGGGrGrGSLLLR | 0.2339
AMLPGSPLFTrAPPPK | -3.62
QLrMQLQQR | -2.307
TSVYrQQQPAVPQGQrLrQQLQAK | -4.048
QVTITGSAASISLAQYLINAr | -0.8472
QPQPAQNVLAAPrLR | -1.672
ASAPAADPPrYTFAPSVSLNK | -4.884
TPGQPGPQrFDGPPGQQVQPrFDGVPQrFDGPQHQQASR | -1.547
SKPQLArYLGGSMDLSTFDFR | -0.3057
MQLQQrLQGQQFLNQSrQALELK | -3.454
LNASIAGLFPPQINIPLPPrPNLNR | -2.4198
AGPrLLLIPVQQGSPTLrPVSNTQLQGHrMVLQPVR | -0.8102
LAMDFGGAGAAQQGLTDSCQSGGVPTAVQNLAPrAAVAAAAPrAVAPYK | -4.352
EYFIPGTrLPPPTHGPQEYPPPPAVR | -1.126
LrQQLQAK | -3.626
FDGSPGQMGGGGPLrFEGPQGQLGGGCPLrFEGPPGPVGTPLrFEGPIGQAGGGGFR | -4.068
GQPVGGLrFEGPHGQPVGGLrFDNPR | -1.132
GPVGQALPrPQAPPrLQSLMGTVQQGAQSWQQR | -3.859
QGSIGLYTQNQPLPAGGPRVDPYrPVRLPMQK | -1.665
VGVPTAVQNLAPrAAVAAAAPrAVAPYK | -3.907
LQGQQFLNQSrQALELK | -1.9617
RPPTPGPDTSVSGPrLTLALAPGPPPPPSR | -1.877
RAPAGGSLGrALMR | 0.1845
APESPPSADPALVAGPAEEAECPPPRQPQPAQNVLAAPrLR | -1.431
AGPrLLLIPVQQGSPTLRPVSNTQLQGHrMVLQPVR | -0.6769
QMAVPSFTQQILCPKPVHVrPPMPPrYPAPYGER | -2.943
GMQHFPPGPGGPMPGPHGGPGGPVGPrLLGPPPPPR | -1.283
QLrMQLQQrLQGQQFLNQSR | -2.764
GrGSLLLR | 1.1394
STArFTLNPNPTGVQNPHIER | -1.9764
QLrMQLQQrLQGQQFLNQSrQALELK | -3.961
FEGSPGLrFEGSPGGLrFEGPGGQPVGGLrFEGHR | -0.8785
